Biological target: T1, huNav1.7α + β1-β2-β3 (human, UniProt Q15858 1-1988; A5A6L6 19-218; O60939 30-215; Q2KI11 23-215)
T1 construct: also called huNav1.7-beta1-beta2-beta3; huNav1.7-β1-β2-β3
Assay: binding FACS, CHO FlpIn
This section presents binders with their documented pEC50 values.
// returns pEC50 (minus log10 of molar concentration), number only

Use the examples below as a reference point.
F010302358 (VHH) VHH: EVQLVESGGGVVQPGGSLRLSCAASSRQFIRDVFTGWYRQAPGKQRELVARIYNEGNTQYADSVKGRFTISRDNAKKTVYLQMNSLRPEDTALYYCLFSGTISTGREYRSGDYWGQGTLVTVSS ... 8.35
F010301939 (VHH, also called F0103464B09(L11V, K83R, G88A, V89L)) VHH: EVQLVESGGGVVQPGGSLRLSCATTSRAFIRDVFTGWYRRVPGKERELVARIYNGGNTNYADFAKGRFSISRDNAKKMVTLRMSNLRPEDTALYYCLFSGTINTGREYRSGDYWGQGTLVTVSS ... 8.29
F010302347 (VHH) VHH: EVQLVESGGGVVQPGGSLRLSCAASHRAFIRDVFTGWYRQAPGKQRELVARIYEGGNTQYADSAKGRFTISRDNAKKTVYLQMNSLRPEDTALYYCLFSGTISTGREYRSGDYWGQGTLVTVSS ... 8.34
F010302357 (VHH) VHH: EVQLVESGGGVVQPGGSLRLSCAASSRQFIRDVFTGWYRQAPGKQRELVARIYNEGNTNYADSVKGRFTISRDNAKKTVYLQMNSLRPEDTALYYCLFSGTISTGREYRSGDYWGQGTLVTVSS ... 8.28
F010301872 (VHH, also called F0103464B09(L11V, T25S, S68T, T79Y, R81Q, S82aN, N82bS, K83R, G88A, V89L)) VHH: EVQLVESGGGVVQPGGSLRLSCATSSRAFIRDVFTGWYRRVPGKERELVARIYNGGNTNYADFAKGRFTISRDNAKKMVYLQMNSLRPEDTALYYCLFSGTINTGREYRSGDYWGQGTLVTVSS ... 8.17

stdin: Reported pEC50 for F010302336 (VHH) VHH: EVQLVESGGGVVQPGGSLRLSCAASHRQFIRDVFTGWYRRAPGKQRELVARIYNEGNTQYADSAKGRFTISRDNAKKTVYLQMNSLRPEDTALYYCLFSGTISTGREYRSGDYWGQGTLVTVSS : what is it?
stdout: 8.44

stdin: Next binder up: F010302356 (VHH) VHH: EVQLVESGGGVVQPGGSLRLSCAASHRAFIRDLFTGWYRRAPGKQRELVARIYESGNTNYADSVKGRFTISRDNAKKTVYLQMNSLRPEDTALYYCLFSGTISTGREYRSGDYWGQGTLVTVSS
stdout: 8.28

stdin: Request: F010302365 (VHH, also called F0103464B09(L11V, T24A, T25S, V40A, E44Q, F62S, S68T, M77T, T79Y, R81Q, S82aN, N82bS, K83R, G88A, V89L, N99S)) VHH: EVQLVESGGGVVQPGGSLRLSCAASSRAFIRDVFTGWYRRAPGKQRELVARIYNGGNTNYADSAKGRFTISRDNAKKTVYLQMNSLRPEDTALYYCLFSGTISTGREYRSGDYWGQGTLVTVSS
stdout: 8.51
